Test system: 695427-040-R-J1-PDC complex spheroid viability
Test: Anticancer human tumor 695427-040-R-J1-PDC patient-derived colon adenocarcinoma cell line growth inhibition [POLQ]
Settings: second compound 3.16 µM; first compound 10 µM; stronger effect = lower value
Note to self: use fulfilled only for viability, T/C readings below 90%; a reading exactly at 90% still gets not fulfilled.

Please review the following examples before continuing.
{"compound": "O=c1[nH]cc(F)c(=O)[nH]1 + Cc1cccc(N(C)C(=O)C2C(O)CCN2c2nc(C)cc(C(F)(F)F)c2C#N)c1", "class-name": "not fulfilled"}
{"compound": "O=C(Nc1ccc(O)c(NS(=O)(=O)c2ccc(F)cc2)c1)c1ccc(-c2ccccc2)cc1 + Nc1ccc(C#CCN(C(=O)Cc2ncc(C(F)(F)F)cc2C(F)(F)F)c2ccc(F)cc2)nn1", "class-name": "not fulfilled"}
{"compound": "CC1COCCN1c1cc(-c2ccnn2C)c2ccnc(-c3ccn[nH]3)c2n1 (stereo not given) + COC1C(OC(N)=O)C(O)C(Oc2ccc3c(O)c(NC(=O)c4ccc(O)c(CC=C(C)C)c4)c(=O)oc3c2C)OC1(C)C", "class-name": "fulfilled"}

With those in mind, consider the next compound.
Is 90% strictly greater than the compound's reported viability, T/C? compound: COc1cc2cc(C(=O)CCC(=O)O)sc2cc1OC + COC1C(OC(N)=O)C(O)C(Oc2ccc3c(O)c(NC(=O)c4ccc(O)c(CC=C(C)C)c4)c(=O)oc3c2C)OC1(C)C
not fulfilled

----------
System: 695427-040-R-J1-PDC complex spheroid viability
Experiment: Anticancer human tumor 695427-040-R-J1-PDC cell line growth inhibition [POLQ];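 also: spheroids exposed to compounds for seven days; 100% = DMSO vehicle control viability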
Settings: second compound 0.0316 µM; first compound 10 µM; stronger effect = lower value
reported-endpoint: viability, T/C (%)
Your answer is read as %, so omit the unit and give the number.

See these solved cases before continuing.
{"compound": "O=c1[nH]cc(F)c(=O)[nH]1 + Cc1cccc(N(C)C(=O)C2C(O)CCN2c2nc(C)cc(C(F)(F)F)c2C#N)c1", "readout-number": 98.2}
{"compound": "Nc1ccn(C2OC(CO)C(O)C2(F)F)c(=O)n1 (stereo unspecified) + Cc1cccc(N(C)C(=O)C2C(O)CCN2c2nc(C)cc(C(F)(F)F)c2C#N)c1", "readout-number": 52.4}
{"compound": "Nc1ccn(C2OC(CO)C(O)C2(F)F)c(=O)n1 (stereo unspecified) + Nc1ccc(C#CCN(C(=O)Cc2ncc(C(F)(F)F)cc2C(F)(F)F)c2ccc(F)cc2)nn1", "readout-number": 66.6}

Can you look up viability, T/C on 695427-040-R-J1-PDC complex spheroid viability for CNCc1ccc(-c2[nH]c3cc(F)cc4c3c2CCNC4=O)cc1 + COC1C(OC(N)=O)C(O)C(Oc2ccc3c(O)c(NC(=O)c4ccc(O)c(CC=C(C)C)c4)c(=O)oc3c2C)OC1(C)C ?
103

API: value(readout= viability, T/C, system= 695427-040-R-J1-PDC complex spheroid viability, query= O=C(Nc1ccc(O)c(NS(=O)(=O)c2ccc(F)cc2)c1)c1ccc(-c2ccccc2)cc1 + COC1C(OC(N)=O)C(O)C(Oc2ccc3c(O)c(NC(=O)c4ccc(O)c(CC=C(C)C)c4)c(=O)oc3c2C)OC1(C)C )
89.3

----------
System: 695427-040-R-J1-PDC complex spheroid viability
Test: Anticancer human tumor 695427-040-R-J1-PDC cell line growth inhibition [POLQ];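 also: spheroids exposed to compounds for seven days; 100% = DMSO vehicle control viability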
Conditions: second compound 0.316 µM; first compound 0.1 µM; stronger effect = lower value
Parameter viability, T/C: see the listing below.
Report as a plain number; the unit % is understood.

Answered examples (4):
{"molecule": "O=c1[nH]cc(F)c(=O)[nH]1 + COC1C(OC(N)=O)C(O)C(Oc2ccc3c(O)c(NC(=O)c4ccc(O)c(CC=C(C)C)c4)c(=O)oc3c2C)OC1(C)C", "quantity-unit": "%", "viability, T/C": 106}
{"molecule": "O=C(c1cc(Cc2n[nH]c(=O)c3ccccc23)ccc1F)N1CCN(C(=O)C2CC2)CC1 + COC1C(OC(N)=O)C(O)C(Oc2ccc3c(O)c(NC(=O)c4ccc(O)c(CC=C(C)C)c4)c(=O)oc3c2C)OC1(C)C", "quantity-unit": "%", "viability, T/C": 96.9}
{"molecule": "C#Cc1c(F)ccc2cc(O)cc(-c3ncc4c(N5CC6CCC(C5)N6)nc(OCC56CCCN5CC(F)C6)nc4c3F)c12 (stereo not given) + COC1C(OC(N)=O)C(O)C(Oc2ccc3c(O)c(NC(=O)c4ccc(O)c(CC=C(C)C)c4)c(=O)oc3c2C)OC1(C)C", "quantity-unit": "%", "viability, T/C": 101}
{"molecule": "CCc1c2c(nc3ccc(O)cc13)-c1cc3c(c(=O)n1C2)COC(=O)[C@]3(O)CC + Cc1cccc(N(C)C(=O)C2C(O)CCN2c2nc(C)cc(C(F)(F)F)c2C#N)c1", "quantity-unit": "%", "viability, T/C": 75.8}

For the molecule shown here, CC[C@@]1(O)C(=O)OCc2c1cc1n(c2=O)Cc2cc3c(CN(C)C)c(O)ccc3nc2-1 + Cc1cccc(N(C)C(=O)C2C(O)CCN2c2nc(C)cc(C(F)(F)F)c2C#N)c1 , give the reported viability, T/C.
87.3
